measured on: human TLR8 (Homo sapiens, UniProt Q9NR97)
protocol: TLR8 inhibition reporter assay (HEK-Blue cells, secreted embryonic alkaline phosphatase reporter)
setup conditions: HEK-Blue cells overexpressing human TLR8, stimulated with R848 15.9 μM; read-out: TLR 8 IC50
Catalogue of IC50 values

Example entries and their recorded answers appear below.
1) Cn1c(-c2ccc(S(C)(=O)=O)cc2)nc2cc(F)c(C3CCN(C4CC5CCC(C4)N5C4COC4)CC3)cc21 (single isomer, unassigned) [Example 234] :: > 50 µM
2) CC(C)CN1CCC(N2CCC(c3cc4nc(-c5ccc(S(C)(=O)=O)cc5)n(C)c4cc3F)CC2)CC1 :: > 50 µM

-- ask Returns the measured IC50 for the input compound. Input: Cn1c(-c2ccc(S(C)(=O)=O)cc2)nc2cc(C3CCN(C4CC5CCC(C4)N5CC4CC4)CC3)cc(F)c21 (stereo not drawn) [Example 217]
-- reply > 50 µM

----------
Catalogue of pIC50 values
measured on: human TLR8 (Homo sapiens)
protocol: TLR8 inhibition reporter assay (HEK-Blue cells, secreted embryonic alkaline phosphatase reporter)
setup conditions: HEK-Blue cells overexpressing human TLR8, stimulated with R848 15.9 μM; read-out: TLR 8 IC50
pIC50: −log10 of the molar value.

Example entries and their recorded answers appear below.
1) CS(=O)(=O)c1ccc(-c2nc3c(F)cc(C4CCN(C5CC6CCC(C5)N6CC5CC5)CC4)cc3n2C2CC2)cc1 (single isomer, unassigned) [Example 325] :: < 4.30
2) CC(C)N1C2CCC1CC(N1CCC(c3cc4c(cc3F)nc(-c3ccc(S(C)(=O)=O)cc3)n4C)CC1)C2 (single isomer, unassigned) [Example 97] :: < 4.30

Okay, now this molecule:
-- ask Returns the measured pIC50 for the input molecule. Input: Cc1cc(C2CCN(C3CCN(C(C)C)CC3)CC2)cc2c1nc(-c1ccc(S(C)(=O)=O)c(F)c1)n2C [Example 122]
-- reply < 4.60

----------
Catalogue of pIC50 values
measured on: human TLR8 (Homo sapiens)
Sequence (Q9NR97 27-1041): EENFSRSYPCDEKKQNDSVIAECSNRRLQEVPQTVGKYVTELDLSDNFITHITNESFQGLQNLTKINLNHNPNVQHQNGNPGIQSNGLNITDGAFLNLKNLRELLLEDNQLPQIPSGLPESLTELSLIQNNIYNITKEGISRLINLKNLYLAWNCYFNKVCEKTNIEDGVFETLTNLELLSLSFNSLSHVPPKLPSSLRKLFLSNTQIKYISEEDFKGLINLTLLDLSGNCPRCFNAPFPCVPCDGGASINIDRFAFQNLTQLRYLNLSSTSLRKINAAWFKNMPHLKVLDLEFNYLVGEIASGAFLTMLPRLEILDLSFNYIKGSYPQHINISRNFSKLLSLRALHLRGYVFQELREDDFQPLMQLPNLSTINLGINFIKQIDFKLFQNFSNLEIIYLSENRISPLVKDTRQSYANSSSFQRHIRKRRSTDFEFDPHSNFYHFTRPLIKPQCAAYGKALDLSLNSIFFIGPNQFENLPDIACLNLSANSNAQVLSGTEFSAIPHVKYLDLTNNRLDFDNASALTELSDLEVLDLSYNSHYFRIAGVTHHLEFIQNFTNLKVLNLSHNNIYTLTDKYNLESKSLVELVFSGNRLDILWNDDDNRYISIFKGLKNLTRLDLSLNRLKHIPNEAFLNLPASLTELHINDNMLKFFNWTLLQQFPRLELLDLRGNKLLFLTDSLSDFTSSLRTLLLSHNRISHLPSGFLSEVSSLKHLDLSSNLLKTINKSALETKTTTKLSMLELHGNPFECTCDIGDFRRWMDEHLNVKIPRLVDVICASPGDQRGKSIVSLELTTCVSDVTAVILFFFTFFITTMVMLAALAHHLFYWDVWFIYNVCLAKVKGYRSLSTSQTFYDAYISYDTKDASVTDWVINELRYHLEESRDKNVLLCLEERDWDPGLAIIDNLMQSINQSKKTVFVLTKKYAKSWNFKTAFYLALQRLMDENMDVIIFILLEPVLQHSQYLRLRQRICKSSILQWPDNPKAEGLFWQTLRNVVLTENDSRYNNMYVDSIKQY
protocol: TLR8 inhibition reporter assay (HEK-Blue cells, secreted embryonic alkaline phosphatase reporter)
setup conditions: HEK-Blue cells overexpressing human TLR8, stimulated with R848 15.9 μM; read-out: TLR 8 IC50
pIC50: −log10 of the molar value.

Example entries and their recorded answers appear below.
1. COCCN1CCCC(N2CCC(c3cc(F)c4nc(-c5ccc(S(C)(=O)=O)cc5)n(C)c4c3)CC2)CC1 (single isomer, unassigned) [Example 303] :: < 4.30
2. Cn1c(-c2ccc(S(C)(=O)=O)cc2)nc2ccc(C3CCN(C4CC5CCC(C4)N5C4COC4)CC3)c(F)c21 (stereo not shown) [Example 272] :: < 4.30
3. COCCN1C2CCC1CC(N1CCC(c3cc(C)c4nc(-c5ccc(OC)c(OC)c5)n(C)c4c3)CC1)C2 (single isomer, unassigned) [Example 169] :: 4.63
4. Cn1c(-c2ccc(S(C)(=O)=O)cc2)nc2c(F)c(C3CCN(C4CC5CCC(C4)N5CC4COC4)CC3)ccc21 (single isomer, unassigned) [Example 194] :: < 4.30
5. COCCN1CCC(N2CCC(c3cc4c(cc3F)nc(-c3ccc(S(C)(=O)=O)cc3)n4C)CC2)CC1 :: < 4.30

-- ask Returns the measured pIC50 for the input compound. Input: CC(C)N1CCC(N2CCC(c3cc(F)c4c(c3)nc(-c3ccc(S(C)(=O)=O)cc3)n4C)CC2)CC1
-- reply < 4.30

-- ask Returns the measured pIC50 for the input compound. Input: COc1ccc(-c2nc3cc(C4CCN(C5CCN(C6CC6)CC5)CC4)ccc3n2C(C)C)cc1OC
-- reply < 4.30

-- ask Returns the measured pIC50 for the input compound. Input: COCCN1CCCC(N2CCC(c3cc(C)c4nc(-c5ccc(S(C)(=O)=O)cc5)n(C)c4c3)CC2)CC1 (single isomer, unassigned) [Example 309]
-- reply < 4.30

-- ask Returns the measured pIC50 for the input compound. Input: CC(C)CN1C2CCC1CC(N1CCC(c3ccc4c(nc(-c5ccc(S(C)(=O)=O)cc5)n4C)c3F)CC1)C2 (single isomer, unassigned) [Example 190]
-- reply < 4.30

-- ask Returns the measured pIC50 for the input compound. Input: CN(C)C1CCN(Cc2ccc(-c3ccc4nc(-c5ccc(F)cc5)n(C)c4c3)cc2)CC1
-- reply 4.77

-- ask Returns the measured pIC50 for the input compound. Input: Cn1c(-c2ccc(S(C)(=O)=O)cc2)nc2c(F)c(C3CCN(C4CC5CCC(C4)N5C4COC4)CC3)ccc21 (stereo not shown) [Example 195]
-- reply < 4.30

-- ask Returns the measured pIC50 for the input compound. Input: Cc1cc(C2CCN(C3CC4CCC(C3)N4C3CCC3)CC2)cc2c1nc(-c1ccc(S(C)(=O)=O)cc1)n2C (single isomer, unassigned) [Example 153]
-- reply < 4.60

-- ask Returns the measured pIC50 for the input compound. Input: Cn1c(-c2ccc(S(C)(=O)=O)cc2)nc2c(F)cc(C3CCN(C4CC5CCC(C4)N5C4CCOCC4)CC3)cc21 (single isomer, unassigned) [Example 289]
-- reply < 4.30
